# ASSAY_PROTOCOL: Plasma clearance in Balb/c mouse at 5 mg/kg, iv or 10 mg/kg, po by UHPLC and ESI mass spectrometry
# Assay type: ADME, organism-based
RECORDED_METRIC: clearance

What value of measured clearance is listed for C[C@@H]1CN(CC(=O)N2CC(C)(C)c3nc(CO)c(Cc4ccc(F)cc4)cc32)[C@@H](CN2CCOC[C@H]2C)CN1 [ASTX-660] ?
41 mL/min/kg

---

Provide the reported chromatographic logD of each item.
# ASSAY_PROTOCOL: Chromatographic hydrophobicity index, log D of the compound at pH 7.4 by HPLC method
# Assay type: physicochemical
# CONDITIONS: buffer
Returns: the value as a bare number; no unit string appended.

What value of measured chromatographic logD is listed for C[C@@H]1CN(CC(=O)N2CC(C)(C)c3cc(=O)n(Cc4ccc(F)cc4)cc32)[C@@H](CN2[C@H](C)COC[C@H]2C)CN1 ?
2.4

What value of measured chromatographic logD is listed for C[C@@H]1CN(CC(=O)N2CC(C)(C)c3[nH]c(=O)c(Cc4ccc(F)cc4)cc32)[C@@H](CN2[C@H](C)COC[C@H]2C)CN1 ?
2.7

What value of measured chromatographic logD is listed for C[C@@H]1CN(CC(=O)N2CC(C)(C)c3ncc([C@@H](O)c4ccc(F)cc4)cc32)[C@@H](CN2[C@H](C)COC[C@H]2C)CN1 ?
2.9

What value of measured chromatographic logD is listed for C[C@@H]1CN(CC(=O)N2CC(C)(C)c3nc(CO)c(Cc4ccc(F)cc4)cc32)[C@@H](CN2CCOC[C@H]2C)CN1 ?
3.1

What value of measured chromatographic logD is listed for C[C@@H]1CN(CC(=O)N2CC(C)(C)c3nnc(Cc4ccc(F)cc4F)cc32)[C@@H](CN2Cc3cc(C#N)ccc3C2=O)CN1 ?
3

What value of measured chromatographic logD is listed for C[C@@H]1CN(CC(=O)N2CC(C)(C)c3nnc(Cc4ccc(F)cc4F)cc32)[C@@H](CN2Cc3cc(F)ccc3C2=O)CN1 ?
2.6

What value of measured chromatographic logD is listed for C[C@@H]1CN(CC(=O)N2CC(C)(C)c3nnc(Cc4ccc(F)cc4F)cc32)[C@@H](CN2Cc3ccccc3C2=O)CN1 ?
2.4

What value of measured chromatographic logD is listed for C[C@@H]1CN(CC(=O)N2CC(C)(C)c3nnc(Cc4ccc(F)cc4F)cc32)[C@@H](CN2Cc3ccc(F)cc3C2=O)CN1 ?
3.1

What value of measured chromatographic logD is listed for C[C@@H]1CN(CC(=O)N2CC(C)(C)c3c2cc(Cc2ccc(F)cc2)c(=O)n3C)[C@@H](CN2[C@H](C)COC[C@H]2C)CN1 ?
3.2

What value of measured chromatographic logD is listed for C[C@@H]1CN(CC(=O)N2CC(C)(C)c3nnc(Cc4ccc(F)cc4F)cc32)[C@@H](CN2Cc3c(F)cccc3C2=O)CN1 ?
2.7

What value of measured chromatographic logD is listed for C[C@@H]1CN(CC(=O)N2CC(C)(C)c3nc(CO)c(Cc4ccc(F)cc4)cc32)[C@@H](CN2[C@H](C)COC[C@H]2C)CN1 ?
3.5

What value of measured chromatographic logD is listed for C[C@@H]1CN(CC(=O)N2CC(C)(C)c3nnc(Cc4ccc(F)cc4F)cc32)[C@@H](CN2Cc3ccc(C#N)cc3C2=O)CN1 ?
2.9

---

# ASSAY_PROTOCOL: Cmax in Sprague-Dawley rat at 5 mg/kg, po by UHPLC and ESI mass spectrometry
# Format: ADME, organism-based
# Set-up: dose 5 mg/kg, route oral
# CONDITIONS: in vivo
RECORDED_METRIC: Cmax
A complete answer gives the number followed by the unit.

What value of measured Cmax is listed for C[C@@H]1CN(CC(=O)N2CC(C)(C)c3ncc(Cc4ccc(F)cc4)cc32)[C@@H](CN2CCOC[C@H]2C)CN1 ?
47 ng/mL

---

# ASSAY_PROTOCOL: Oral bioavailability in Sprague-Dawley rat at 5 mg/kg by UHPLC and ESI mass spectrometry
# Assay type: ADME, organism-based
# CONDITIONS: in vivo
RECORDED_METRIC: bioavailability (%)
API: value field is a number in %; no unit string.

What value of measured bioavailability is listed for C[C@@H]1CN(CC(=O)N2CC(C)(C)c3ncc(Cc4ccc(F)cc4)cc32)[C@@H](CN2CCOC[C@H]2C)CN1 ?
24

---

Provide the reported bioavailability of each item.
# ASSAY_PROTOCOL: in vivo
# CONDITIONS: cynomolgus monkey, po, 5 mg/kg

What value of measured bioavailability is listed for C[C@@H]1CN(CC(=O)N2CC(C)(C)c3ncc(Cc4ccc(F)cc4)cc32)[C@@H](CN2CCOC[C@H]2C)CN1 ?
2%

What value of measured bioavailability is listed for C[C@@H]1CN(CC(=O)N2CC(C)(C)c3ncc([C@H](O)c4ccc(F)cc4)cc32)[C@@H](CN2[C@H](C)COC[C@H]2C)CN1 ?
13%

What value of measured bioavailability is listed for C[C@@H]1CN(CC(=O)N2CC(C)(C)c3nnc(Cc4ccc(F)cc4F)cc32)[C@@H](CN2Cc3ccccc3C2=O)CN1 ?
18%

What value of measured bioavailability is listed for C[C@@H]1CN(CC(=O)N2CC(C)(C)c3nc(CO)c(Cc4ccc(F)cc4)cc32)[C@@H](CN2CCOC[C@H]2C)CN1 ?
12%

What value of measured bioavailability is listed for C[C@@H]1CN(CC(=O)N2CC(C)(C)c3ncc([C@@H](O)c4ccc(F)cc4)cc32)[C@@H](CN2[C@H](C)COC[C@H]2C)CN1 ?
13%

---

# TARGET_ENTITY: hERG (KCNH2) (Homo sapiens, UniProt Q12809)
# Sequence (Q12809 whole entry): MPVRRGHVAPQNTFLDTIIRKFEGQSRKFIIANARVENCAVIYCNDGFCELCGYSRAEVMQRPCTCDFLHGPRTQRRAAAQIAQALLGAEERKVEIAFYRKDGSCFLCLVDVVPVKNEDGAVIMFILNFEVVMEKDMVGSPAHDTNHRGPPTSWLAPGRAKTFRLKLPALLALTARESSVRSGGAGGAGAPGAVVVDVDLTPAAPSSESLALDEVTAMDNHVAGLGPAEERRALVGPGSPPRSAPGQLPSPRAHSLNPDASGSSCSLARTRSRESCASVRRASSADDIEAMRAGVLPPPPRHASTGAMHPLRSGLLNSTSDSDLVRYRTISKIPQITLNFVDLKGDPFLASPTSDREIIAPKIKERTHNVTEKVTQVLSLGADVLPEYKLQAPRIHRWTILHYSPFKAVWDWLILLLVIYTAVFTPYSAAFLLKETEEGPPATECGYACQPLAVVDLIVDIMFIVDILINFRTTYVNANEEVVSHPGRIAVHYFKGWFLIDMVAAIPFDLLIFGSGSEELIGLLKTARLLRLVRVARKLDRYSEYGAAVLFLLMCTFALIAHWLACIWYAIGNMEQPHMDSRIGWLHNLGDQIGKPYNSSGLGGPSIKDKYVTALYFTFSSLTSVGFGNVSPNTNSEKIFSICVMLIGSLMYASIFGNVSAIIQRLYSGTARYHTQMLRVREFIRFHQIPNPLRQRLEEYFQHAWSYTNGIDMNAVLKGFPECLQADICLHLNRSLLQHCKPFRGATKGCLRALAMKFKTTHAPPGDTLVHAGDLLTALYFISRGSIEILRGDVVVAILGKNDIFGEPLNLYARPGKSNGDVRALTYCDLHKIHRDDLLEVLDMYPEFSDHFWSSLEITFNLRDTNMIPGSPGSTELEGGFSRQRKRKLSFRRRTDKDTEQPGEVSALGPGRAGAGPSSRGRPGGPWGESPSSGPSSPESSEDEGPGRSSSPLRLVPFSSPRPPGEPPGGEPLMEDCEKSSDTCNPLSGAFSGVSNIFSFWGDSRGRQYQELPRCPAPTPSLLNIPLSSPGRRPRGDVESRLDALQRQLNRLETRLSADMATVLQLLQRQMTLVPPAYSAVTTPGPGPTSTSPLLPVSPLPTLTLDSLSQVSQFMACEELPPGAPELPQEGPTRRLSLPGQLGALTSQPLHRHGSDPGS
# ASSAY_PROTOCOL: in vitro
# CONDITIONS: CHO-K1 cells expressing human ERG
RECORDED_METRIC: inhibition at 10 min, 30 µM (%)
API: value field is a number in %; no unit string.

What value of measured inhibition at 10 min, 30 µM is listed for C[C@@H]1CN(CC(=O)N2CC(C)(C)c3nnc(Cc4ccc(F)cc4F)cc32)[C@@H](CN2Cc3cc(C#N)ccc3C2=O)CN1 ?
19

What value of measured inhibition at 10 min, 30 µM is listed for C[C@@H]1CN(CC(=O)N2CC(C)(C)c3nnc(Cc4ccc(F)cc4F)cc32)[C@@H](CN2Cc3ccc(C#N)cc3C2=O)CN1 ?
18

What value of measured inhibition at 10 min, 30 µM is listed for C[C@@H]1CN(CC(=O)N2CC(C)(C)c3nnc(Cc4ccc(F)cc4F)cc32)[C@@H](CN2Cc3cc(F)ccc3C2=O)CN1 ?
25

What value of measured inhibition at 10 min, 30 µM is listed for C[C@@H]1CN(CC(=O)N2CC(C)(C)c3nnc(Cc4ccc(F)cc4F)cc32)[C@@H](CN2Cc3ccc(F)cc3C2=O)CN1 ?
18

What value of measured inhibition at 10 min, 30 µM is listed for C[C@@H]1CN(CC(=O)N2CC(C)(C)c3nnc(Cc4ccc(F)cc4F)cc32)[C@@H](CN2Cc3ccccc3C2=O)CN1 ?
27

What value of measured inhibition at 10 min, 30 µM is listed for C[C@@H]1CN(CC(=O)N2CC(C)(C)c3nnc(Cc4ccc(F)cc4F)cc32)[C@@H](CN2Cc3c(F)cccc3C2=O)CN1 ?
28

What value of measured inhibition at 10 min, 30 µM is listed for C[C@@H]1CN(CC(=O)N2CC(C)(C)c3nnc(Cc4ccc(F)cc4)cc32)[C@@H](CN2Cc3ccccc3C2=O)CN1 ?
12

---

# ASSAY_PROTOCOL: Oral bioavailability in Balb/c mouse at 5 mg/kg by UHPLC and ESI mass spectrometry
# Type: ADME, organism-based
# CONDITIONS: in vivo
RECORDED_METRIC: bioavailability (%)
API: value field is a number in %; no unit string.

What value of measured bioavailability is listed for C[C@@H]1CN(CC(=O)N2CC(C)(C)c3nnc(Cc4ccc(F)cc4F)cc32)[C@@H](CN2Cc3ccccc3C2=O)CN1 ?
3

---

# ASSAY_PROTOCOL: Volume of distribution at steady state in Sprague-Dawley rat at 5 mg/kg, iv or 10 mg/kg, po by UHPLC and ESI mass spectrometry
# Format: ADME, organism-based
# CONDITIONS: in vivo, read-out: Vdss
RECORDED_METRIC: Vd (L/kg)
API: value field is a number in L/kg; no unit string.

What value of measured Vd is listed for C[C@@H]1CN(CC(=O)N2CC(C)(C)c3nc(CO)c(Cc4ccc(F)cc4)cc32)[C@@H](CN2CCOC[C@H]2C)CN1 ?
9.3

---

# ASSAY_PROTOCOL: Cmax in Balb/c mouse at 10 mg/kg, po by UHPLC and ESI mass spectrometry
# Assay type: ADME, organism-based
# Set-up: dose 10 mg/kg, route oral
# CONDITIONS: in vivo
RECORDED_METRIC: Cmax (ng/mL)
API: value field is a number in ng/mL; no unit string.

What value of measured Cmax is listed for C[C@@H]1CN(CC(=O)N2CC(C)(C)c3nc(CO)c(Cc4ccc(F)cc4)cc32)[C@@H](CN2CCOC[C@H]2C)CN1 ?
433
